Test system: ATP;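 further: ATP exposure 15 min at 22 °C before imaging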
Test: switch fluorescence ratio, 500 uM ATP over buffer (Cy3 cluster intensity, sum of 5 cycles each) (fold (ratio)); higher = stronger signal-on switching upon ATP binding; sequences stand for … in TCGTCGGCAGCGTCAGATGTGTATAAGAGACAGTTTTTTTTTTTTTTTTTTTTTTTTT…TC
Settings: aptamer strand: ATP DNA aptamer (quencher-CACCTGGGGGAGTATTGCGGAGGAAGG + anchor), 100 nM annealed; ATP concentration: 500 uM
The following sequences are shown together with reported switch fluorescence ratio values.
readout_kind: switch fluorescence ratio

seq_text	observed_measurement
TTCGTAATCG	1.07
CCCAATCGGT	1.05
CTCGTGGTTT	0.981
GTCGATTGGG	1
TTACGTAGGC	1.09
TGGTTTAAGT	0.987
TCGGGTAAGT	1.01
GGTGTAGGCA	0.987
TACCTATGTT	0.979
ATCGTGATCC	1.02
TGCTCCTTGC	1.08
TGGAAAACCG	1.08
CGTGGTGCGA	1.02
CCAAGGGTAT	0.987
GACGGGGGGG	1

* * *

Tested on: ATP;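 further: ATP exposure 15 min at 22 °C before imaging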
Test: switch fluorescence ratio, 500 uM ATP over buffer (Cy3 cluster intensity, sum of 5 cycles each) (fold (ratio)); higher = stronger signal-on switching upon ATP binding; sequences stand for … in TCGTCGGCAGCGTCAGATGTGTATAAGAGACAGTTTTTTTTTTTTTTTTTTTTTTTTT…TC
Conditions: aptamer strand: ATP DNA aptamer (quencher-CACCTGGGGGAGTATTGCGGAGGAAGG + anchor), 100 nM annealed; ATP concentration: 500 uM
readout_kind: switch fluorescence ratio

seq_text	readout_kind	observed_measurement
AGGGGCAGCT	switch fluorescence ratio	0.977
GCACTTTTTG	switch fluorescence ratio	0.99
AAATGAAGGG	switch fluorescence ratio	1
ATGGCGTGGC	switch fluorescence ratio	0.986
GGTTGAATTA	switch fluorescence ratio	0.979
TTGTTATAGC	switch fluorescence ratio	0.987
TTAGGACTGG	switch fluorescence ratio	0.992
GGAGTCGTTT	switch fluorescence ratio	0.987
GTTATTATTC	switch fluorescence ratio	0.992
CGGGTTTGTT	switch fluorescence ratio	0.997
GAATCTGTGT	switch fluorescence ratio	0.998
GTGGGATGAG	switch fluorescence ratio	1.01
GGTTATTATG	switch fluorescence ratio	0.978
CGAATATCAT	switch fluorescence ratio	0.975
TTGTAGACAG	switch fluorescence ratio	1.01
TTATTATATG	switch fluorescence ratio	0.971
GGGGGCTTTG	switch fluorescence ratio	0.978
AGTTAATAAT	switch fluorescence ratio	1.01
GAATGGGGTT	switch fluorescence ratio	0.98
GGTAGATATG	switch fluorescence ratio	1.02
TTTTTCCCCG	switch fluorescence ratio	1.33
GAACTGTATG	switch fluorescence ratio	1.05
ACTGTATGTG	switch fluorescence ratio	1.05
AATCGGCTCA	switch fluorescence ratio	0.981
AGATCTTCGG	switch fluorescence ratio	1
CGTGAACATA	switch fluorescence ratio	1.02
AAGCTTTACG	switch fluorescence ratio	1.05
GGACTCGCTC	switch fluorescence ratio	1.02
TTTGTAGCTG	switch fluorescence ratio	1.4
CACGGATAGC	switch fluorescence ratio	1.07
AGGTTGCAGT	switch fluorescence ratio	1.01
TGTGGTGGGC	switch fluorescence ratio	0.967
GCGCTGGGGG	switch fluorescence ratio	1.07
AGGGGCGGTT	switch fluorescence ratio	0.978
CGAGTTTTTG	switch fluorescence ratio	0.979
GGTATACTGA	switch fluorescence ratio	1.05
ACTAAAGACA	switch fluorescence ratio	1.01
AAGGGTTAGA	switch fluorescence ratio	0.986
CACACAGTAT	switch fluorescence ratio	1.07
GCGTCCGCTG	switch fluorescence ratio	1.22
AAATAAGTGA	switch fluorescence ratio	0.979
AGATAACTCA	switch fluorescence ratio	1.02
TTCGGGAATA	switch fluorescence ratio	1.03
CTGGGCGTGC	switch fluorescence ratio	0.997
CATGTAGAGG	switch fluorescence ratio	0.976
GGTATTGGAG	switch fluorescence ratio	0.984
TGTTTTGGAG	switch fluorescence ratio	1
TAAACTGCGG	switch fluorescence ratio	1.03
GGGGATTAAG	switch fluorescence ratio	0.971
GGTGGGGAAT	switch fluorescence ratio	0.979
GAGGGCCGGG	switch fluorescence ratio	0.995
GTGTTGGAGG	switch fluorescence ratio	0.996
TGCATGTACC	switch fluorescence ratio	1.21
ACTGTGTTTT	switch fluorescence ratio	0.972
GTATGAGTTG	switch fluorescence ratio	1.02
TGTGATAGGG	switch fluorescence ratio	0.978
CTGGGAGATT	switch fluorescence ratio	1.02
TCCCATCTGT	switch fluorescence ratio	0.984
GTGGGCGGGG	switch fluorescence ratio	0.979
CCGAGGGGGG	switch fluorescence ratio	1.25
TAAGTGGGGA	switch fluorescence ratio	0.959
TATAAAAGAA	switch fluorescence ratio	1.04
AGGATGATGT	switch fluorescence ratio	1.01
GCAAATAAGT	switch fluorescence ratio	1.02
ACATTTCAAA	switch fluorescence ratio	0.987
ATGATGATGG	switch fluorescence ratio	0.986
AAAGGTTAAG	switch fluorescence ratio	0.991
CAGTTTGATG	switch fluorescence ratio	1
TTGCGGACCA	switch fluorescence ratio	0.996
TGGATTTGGG	switch fluorescence ratio	0.997
GCGTTTGCCC	switch fluorescence ratio	1.06
GGGGGCGTTA	switch fluorescence ratio	1.02
TTGTATAGTG	switch fluorescence ratio	0.933
AGATGTTTGT	switch fluorescence ratio	1.01
